Ok so here's the combined literature set: pKi for Serine protease 1 (Bos taurus, UniProt P00760).
pKi: −log10 of the molar value.

{"MOLECULE": "O=S(=O)(Nc1cccc(OCCNc2ccncc2)c1)c1ccccc1", "pKi": "< 3.30"}
{"MOLECULE": "Cc1ccc(S(=O)(=O)NC(=N)NCCC[C@H](NC(=O)[C@@H]2CCCN2C(=O)[C@@H](Cc2ccccc2)N(C)C(=O)OCc2ccccc2)C(O)c2nc3ccccc3s2)cc1 (some centres undefined)", "pKi": "< 3.82"}
{"MOLECULE": "Cc1c(F)c(Oc2cccc(C(=N)N)c2)nc(Oc2cccc([N+](=O)[O-])c2)c1F", "pKi": "< 5.30"}
{"MOLECULE": "O=C(CNS(=O)(=O)c1ccccc1)N[C@H](CCNc1ccncc1)C(=O)N1CCCCC1", "pKi": "< 3.30"}

====

A compilation of pKi values for Serine protease 1 (Bos taurus) from the published literature.
ASSAY_SYSTEM: Serine protease 1 (Bos taurus)
Sequence (P00760 whole entry): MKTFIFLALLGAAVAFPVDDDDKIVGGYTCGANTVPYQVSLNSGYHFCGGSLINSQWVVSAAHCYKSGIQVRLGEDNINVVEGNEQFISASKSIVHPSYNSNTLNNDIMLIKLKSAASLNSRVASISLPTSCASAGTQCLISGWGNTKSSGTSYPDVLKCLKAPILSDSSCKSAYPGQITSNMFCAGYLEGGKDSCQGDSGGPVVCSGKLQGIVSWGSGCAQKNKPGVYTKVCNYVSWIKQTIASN
pKi: −log10 of the molar value.

{"COMPOUND": "Cc1c(F)c(Oc2cccc(C(=N)N)c2)nc(Oc2cccc(C(=O)N3CCOCC3)c2)c1F", "COMPARISON_SIGN": "<", "pKi": 5.30}
{"COMPOUND": "N=C(N)c1cccc(CN2CC[C@H](NS(=O)(=O)c3ccc4ccccc4c3)C2)c1", "COMPARISON_SIGN": "<", "pKi": 5.54}
{"COMPOUND": "O=S(=O)(NCCc1cccc(OCCNc2ccncc2)c1)c1ccc(Cl)cc1", "COMPARISON_SIGN": "<", "pKi": 3.30}
{"COMPOUND": "N=C(N)c1cccc(CC(NS(=O)(=O)c2ccc3ccccc3c2)C(=O)N2CCN(C(=O)c3ccccc3)CC2)c1 (stereo unspecified)", "COMPARISON_SIGN": "=", "pKi": 6.85}
{"COMPOUND": "N=C(N)c1ccc2c(C=O)c[nH]c2c1", "COMPARISON_SIGN": "=", "pKi": 4.59}
{"COMPOUND": "CCS(=O)(=O)N1CCN(C(=O)C(Cc2cccc(C(=N)N)c2)NS(=O)(=O)c2ccc3ccccc3c2)CC1 (stereo unspecified)", "COMPARISON_SIGN": "=", "pKi": 6.72}
{"COMPOUND": "CCCc1ccc(S(=O)(=O)N[C@@H](Cc2ccc(C(=N)N)s2)C(=O)N(C)C2CCCC2)cc1", "COMPARISON_SIGN": "=", "pKi": 6.82}
{"COMPOUND": "COC(=O)CCCN(c1ccc2c(c1)nc(C)n2Cc1ccc2ccc(C(=N)N)cc2c1)C1CCN(C(C)=N)CC1", "COMPARISON_SIGN": "=", "pKi": 7.22}
{"COMPOUND": "N=C(N)c1cccc(CC(NS(=O)(=O)c2ccc3ccccc3c2)C(=O)N2CCN(C(=O)C3CCCCC3)CC2)c1 (stereo unspecified)", "COMPARISON_SIGN": "=", "pKi": 7.14}
{"COMPOUND": "CS(=O)(=O)N[C@@H](C(=O)N1CCC[C@H]1C(=O)NCC#Cc1c[nH]cn1)C(c1ccccc1)c1ccccc1", "COMPARISON_SIGN": "=", "pKi": 4.85}
{"COMPOUND": "CCCCS(=O)(=O)N1CCN(C(=O)C(Cc2cccc(C(=N)N)c2)NS(=O)(=O)c2ccc3ccccc3c2)CC1 (stereo unspecified)", "COMPARISON_SIGN": "=", "pKi": 6.74}
{"COMPOUND": "CC(=N)N1CCC(N(CCCC(=O)O)c2ccc3nc(C)n(Cc4ccc5ccc(C(=N)N)cc5c4)c3c2)CC1", "COMPARISON_SIGN": "=", "pKi": 6.17}
{"COMPOUND": "Cc1c(F)c(Nc2cccc(C(=N)N)c2)nc(Oc2cccc(C(=N)N)c2)c1F", "COMPARISON_SIGN": "=", "pKi": 5.51}
{"COMPOUND": "CC(=N)N1CCC(Oc2ccc3nc(CCC(N)=O)n(Cc4ccc5ccc(C(=N)N)cc5c4)c3c2)CC1", "COMPARISON_SIGN": "=", "pKi": 8.36}
{"COMPOUND": "N=C(N)c1ccc(Oc2nc(Oc3ccc(C(=N)N)cc3)c(Cl)cc2Cl)cc1", "COMPARISON_SIGN": "=", "pKi": 5.57}
{"COMPOUND": "Cc1nc2c(Oc3cc(C(=N)N)ccc3O)nc(Oc3cccc(C(=O)N(C)C)c3)nc2n1Cc1ccccc1", "COMPARISON_SIGN": "=", "pKi": 6.82}
{"COMPOUND": "N=C(N)c1ccc2ccc(CN(CCC[n+]3cc[nH]c3)C(=O)c3cccc4ccccc34)cc2c1", "COMPARISON_SIGN": "=", "pKi": 6.12}
{"COMPOUND": "Cc1c(F)c(Oc2cccc(C(=N)N)c2)nc(Oc2cc(O)cc(C(=O)N(C)C)c2)c1F", "COMPARISON_SIGN": "=", "pKi": 5.72}
{"COMPOUND": "N=C(N)c1cccc(Oc2cc(C(=O)O)cc(Oc3cc(C(=N)N)ccc3O)n2)c1", "COMPARISON_SIGN": "=", "pKi": 6.28}
{"COMPOUND": "CN[C@H](Cc1ccccc1)C(=O)N1CCC[C@H]1C(=O)N[C@@H](CCCN=C(N)N)C(=O)c1nc2ccccc2o1", "COMPARISON_SIGN": "=", "pKi": 8.54}
{"COMPOUND": "CNC(=O)c1cc(Oc2cccc(C(=N)N)c2)nc(Oc2cccc(C(=N)N)c2)c1", "COMPARISON_SIGN": "=", "pKi": 6.12}
